System: homoserine transsuccinylase
Test: Homoserine transsuccinylase activity test (Lee et al.), 5,5'-dithiobis(2-nitrobenzoic acid), absorption at 412 nm, with and without SAM
Type: biochemical, E. coli
Conditions: 1 mM SAM; activity in the absence of SAM corresponds to 100%
readoutKind: Activity (%) in the presence of 1 mM SAM

molecule	measured
pSLmetAY: MetA variant with Tyr instead of Asp at position 101 (protein, UniProt P07623 2-309, looked up, variant D101Y) Homoserine …: PIRVPDELPAVNFLREENVFVMTTSRASGQEIRPLKVLILNLMPKKIETENQFLRLLSNSPLQVDIQLLRIDSRESRNTPAEHLNNFYCNFEDIQDQNFYGLIVTGAPLGLVEFNDVAYWPQIKQVLEWSKDHVTSTLFVCWAVQAALNILYGIPKQTRTEKLSGVYEHHILHPHALLTRGFDDSFLAPHSRYADFPAALIRDYTDLEILAETEEGDAYLFASKDKRIAFVTGHPEYDAQTLAQEFFRDVEAGLDPDVPYNYFPHNDPQNTPRASWRSHGNLLFTNWLNYYVYQITPYDLRHMNPTLD	95
